# Tested on: NCI-H322M lung
# test.protocol: NCI-60 one-dose screen, 48 h (100 = growth as untreated, 0 = no growth, -100 = all killed)
# measurement.context: 10 µM unless noted
Compounds without any hit were thinned out: in the full panel of roughly 83,000, 20% have a hit.

[
  {
    "compound": "O=c1c2cnn(-c3ccccc3)c2n2c(CN3CCOCC3)nnc2n1-c1ccccc1",
    "value.unit": "%",
    "growth": 108
  },
  {
    "compound": "COC(=O)c1c(C)nc(C)c2c1C(=O)C(Br)=C(NCc1ccccc1)C2=O",
    "value.unit": "%",
    "growth": 31.4
  },
  {
    "compound": "Cc1cccc(/C=C/c2c(C(=O)/C=C/c3ccccc3)c(C)nc3ccccc23)c1",
    "value.unit": "%",
    "growth": 9.28
  },
  {
    "compound": "COc1cc(NS(=O)(=O)c2ccc(-c3cnc(C4CC4)o3)cc2)ccc1F",
    "value.unit": "%",
    "growth": 49.5
  },
  {
    "compound": "O=C(NCCNc1nccc(Nc2ccc(S(=O)(=O)Nc3ccccn3)cc2)n1)c1cccc([N+](=O)[O-])c1",
    "value.unit": "%",
    "growth": 106
  },
  {
    "compound": "COCCn1cc(-c2csc(-c3cn(C)c4ccc(Br)cc34)n2)c2cccnc21",
    "value.unit": "%",
    "growth": 74.2
  },
  {
    "compound": "O=C1Nc2ccccc2/C1=C/c1cccn1CCCCn1c2ccccc2c(=O)c2ccccc21",
    "value.unit": "%",
    "growth": 101
  },
  {
    "compound": "CN(C)CCNC(=O)c1cc2c3cc(Cl)ccc3[nH]c2c2ncccc12",
    "value.unit": "%",
    "growth": 31.4
  },
  {
    "compound": "Cn1ccnc1C(=O)/C=C/c1ccc(CC(=O)Nc2cc(C(F)(F)F)cc(C(F)(F)F)c2)cc1",
    "value.unit": "%",
    "growth": 73.2
  },
  {
    "compound": "O=c1[nH]c(Cc2nc3ccccc3s2)nc2cc(Br)ccc12",
    "value.unit": "%",
    "growth": 88.8
  },
  {
    "compound": "O=C1c2c(c3c4ccccc4[nH]c3c3ccc4ccccc4c23)C(=O)N1CCN1CCNCC1",
    "value.unit": "%",
    "growth": 89.2
  },
  {
    "compound": "COCCOc1cc2ncnc(N3CCN(c4cc(S(C)(=O)=O)c(C)cc4Cl)CC3)c2cc1OCCOC",
    "value.unit": "%",
    "growth": 105
  },
  {
    "compound": "Nc1c(C(=O)Nc2ccncc2)sc2nc3c(cc12)C(O)CCC3 (stereo unspecified)",
    "value.unit": "%",
    "growth": 84.1
  },
  {
    "compound": "CCN(C)S(=O)(=O)Nc1cccc(Nc2ncnc3cc(NC(=O)CCl)ccc23)c1Cl",
    "value.unit": "%",
    "growth": 73.9
  },
  {
    "compound": "COc1ccc(C(C)=O)cc1S(=O)(=O)Nc1c(N)nc(SC)[nH]c1=O",
    "value.unit": "%",
    "growth": 96.9
  },
  {
    "compound": "CCCCNCCCCCNc1cc(OC)cc2cccnc12",
    "value.unit": "%",
    "growth": 106
  },
  {
    "compound": "Cc1ccc(C)n1-c1ccccc1-n1c(C)ccc1C",
    "value.unit": "%",
    "growth": 99.9
  },
  {
    "compound": "CCCCC1=C(P(=O)(O)O)N[C@H](C(=O)O)CS1",
    "value.unit": "%",
    "growth": 73.8
  },
  {
    "compound": "Cn1cc(-c2csc(-c3c[nH]c4ccc(Br)cc34)n2)c2ccnc(Cl)c21",
    "value.unit": "%",
    "growth": 67.1
  },
  {
    "compound": "COc1cc(-c2cncn2-c2ccc(-c3nc4ccc(F)cc4s3)cc2)ccc1F",
    "value.unit": "%",
    "growth": 103
  },
  {
    "compound": "CCOC(=O)C/C(=N\\Nc1cc(=O)[nH]c2ccc(Br)cc12)C(=O)OCC",
    "value.unit": "%",
    "growth": 92.9
  }
]
